# study system: OdPMT (Oesophagostomum dentatum)
# Sequence (A0A0B1TAL6 entry or part of it): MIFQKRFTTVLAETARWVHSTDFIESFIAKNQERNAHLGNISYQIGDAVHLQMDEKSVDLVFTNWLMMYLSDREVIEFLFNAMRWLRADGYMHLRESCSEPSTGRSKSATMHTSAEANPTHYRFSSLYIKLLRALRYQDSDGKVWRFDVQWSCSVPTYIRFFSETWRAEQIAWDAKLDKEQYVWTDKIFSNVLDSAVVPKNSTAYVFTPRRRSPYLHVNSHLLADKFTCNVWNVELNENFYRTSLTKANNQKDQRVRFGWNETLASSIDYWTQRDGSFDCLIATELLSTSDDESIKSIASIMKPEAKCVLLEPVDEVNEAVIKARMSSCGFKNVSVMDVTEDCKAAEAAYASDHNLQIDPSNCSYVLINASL
# protocol: biochemical
# Assay type: biochemical
pIC50: −log10 of the molar value.

{"molecule": "CO[C@@]12[C@H](COC(N)=O)C3=C(C(=O)C(C)=C(N)C3=O)N1C[C@H]1[C@@H]2N1C (stereo partly shown)", "study system": "OdPMT (Oesophagostomum dentatum)", "pIC50": 3.68}

====

# study system: TcPMT (Toxocara canis);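 on Selectivity index (SI) TcPMT: cytotoxicity IC50 measured in HCT-8 cells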
# Sequence (A0A0B2VTW9 entry or part of it): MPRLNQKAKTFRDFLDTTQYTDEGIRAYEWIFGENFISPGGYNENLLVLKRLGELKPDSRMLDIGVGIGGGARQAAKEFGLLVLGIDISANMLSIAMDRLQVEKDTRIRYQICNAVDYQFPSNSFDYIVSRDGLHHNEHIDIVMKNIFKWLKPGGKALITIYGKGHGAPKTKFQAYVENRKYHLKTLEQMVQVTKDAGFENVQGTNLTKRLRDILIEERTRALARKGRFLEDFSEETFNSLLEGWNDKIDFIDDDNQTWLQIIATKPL
# protocol: biochemical
# Format: biochemical
# condition: IC50^Cytotoxicity/IC50^Enzyme
Criterion: Selectivity index (SI) TcPMT strictly less than 3. Met: criterion met. Not met: criterion not met.

{"compound": "CO[C@@H]1/C=C/O[C@@]2(C)Oc3c(C)c(O)c4c(c3C2=O)C(=N[C@@H]2CC[C@@H](O)O[C@H]2C)C=C(NC(=O)/C(C)=C\\C(=O)[C@@H]2C[C@@H]2[C@H](O)[C@@H](C)[C@@H](O)[C@@H](C)[C@H](OC(C)=O)[C@@H]1C)C4=O", "qualitative label": "criterion met"}
{"compound": "O=c1c(O)cccc2cc(O)c(O)c(O)c12", "qualitative label": "criterion not met"}
{"compound": "CO[C@@]12[C@H](COC(N)=O)C3=C(C(=O)C(C)=C(N)C3=O)N1C[C@H]1[C@@H]2N1C (stereo partly shown)", "qualitative label": "criterion met"}
{"compound": "CO[C@H]1/C=C/O[C@@]2(C)Oc3c(C)c(O)c4c(O)c(cc(O)c4c3C2=O)NC(=O)/C(C)=C\\C=C\\[C@H](C)[C@H](O)[C@@H](C)[C@@H](O)[C@@H](C)[C@H](OC(C)=O)[C@@H]1C", "qualitative label": "criterion met"}
{"compound": "COc1ccc(-c2c(C)c(C(=O)O)nc(-c3ccc4c(O)c(OC)c5c(c4n3)=NC(C)(C)N=5)c2N)c(O)c1OC", "qualitative label": "criterion not met"}
{"compound": "CO[C@@H]1/C=C\\O[C@]2(C)Oc3c(C)c(O)c4c(O)c(c(CN(C)C)c(O)c4c3C2=O)NC(=O)/C(C)=C\\C=C[C@@H](C)[C@@H](O)[C@H](C)[C@@H](O)[C@H](C)[C@H](OC(C)=O)[C@@H]1C", "qualitative label": "criterion met"}
{"compound": "COc1cc(C)c2c(c1C=O)Oc1c(c(C)c(O)c3c1C(O)OC3=O)OC2=O (stereo not shown)", "qualitative label": "criterion met"}

====

# study system: HcPMT1 (Haemonchus contortus)
# Sequence (U5HK46 entry or part of it): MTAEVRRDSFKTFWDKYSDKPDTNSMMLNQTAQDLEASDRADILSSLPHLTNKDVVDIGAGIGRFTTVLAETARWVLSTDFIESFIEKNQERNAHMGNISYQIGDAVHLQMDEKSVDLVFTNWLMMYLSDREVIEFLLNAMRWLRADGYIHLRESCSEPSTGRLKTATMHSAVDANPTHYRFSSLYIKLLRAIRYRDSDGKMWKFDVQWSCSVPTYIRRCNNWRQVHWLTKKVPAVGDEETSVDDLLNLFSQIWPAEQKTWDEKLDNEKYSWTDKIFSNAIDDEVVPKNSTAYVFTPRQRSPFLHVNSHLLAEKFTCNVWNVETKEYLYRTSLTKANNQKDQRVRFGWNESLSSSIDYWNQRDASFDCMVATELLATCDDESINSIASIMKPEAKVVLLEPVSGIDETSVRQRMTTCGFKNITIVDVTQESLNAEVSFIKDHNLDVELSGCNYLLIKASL
# protocol: biochemical
# Type: biochemical

{"molecule": "CO[C@@]12[C@H](COC(N)=O)C3=C(C(=O)C(C)=C(N)C3=O)N1C[C@H]1[C@@H]2N1C (stereo partly shown) [NSC56410]", "study system": "HcPMT1 (Haemonchus contortus)", "IC50 / µM": 53.5}

====

# study system: AsPMT (Ascaris suum);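 further: cytotoxicity IC50 measured in HCT-8 cells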
# Sequence (F1L4B9 entry or part of it): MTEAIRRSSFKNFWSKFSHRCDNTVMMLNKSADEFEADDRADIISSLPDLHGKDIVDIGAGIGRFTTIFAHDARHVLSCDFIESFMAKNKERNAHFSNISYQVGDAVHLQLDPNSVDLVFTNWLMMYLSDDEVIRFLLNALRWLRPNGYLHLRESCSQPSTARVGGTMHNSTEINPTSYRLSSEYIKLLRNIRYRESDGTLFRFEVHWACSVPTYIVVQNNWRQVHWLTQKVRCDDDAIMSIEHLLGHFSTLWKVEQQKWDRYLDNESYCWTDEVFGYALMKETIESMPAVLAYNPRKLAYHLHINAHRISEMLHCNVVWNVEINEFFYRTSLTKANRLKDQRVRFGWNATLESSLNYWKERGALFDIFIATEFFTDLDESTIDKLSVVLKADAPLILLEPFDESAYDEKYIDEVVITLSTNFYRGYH
# Type: biochemical
# condition: IC50^Cytotoxicity/IC50^Enzyme
observed property: Selectivity index (SI) AsPMT

{"compound": "CO[C@@H]1/C=C\\O[C@]2(C)Oc3c(C)c(O)c4c(O)c(c(CN(C)C)c(O)c4c3C2=O)NC(=O)/C(C)=C\\C=C[C@@H](C)[C@@H](O)[C@H](C)[C@@H](O)[C@H](C)[C@H](OC(C)=O)[C@@H]1C", "assay value": 6.67}
{"compound": "CO[C@H]1/C=C/O[C@@]2(C)Oc3c(C)c(O)c4c(O)c(cc(O)c4c3C2=O)NC(=O)/C(C)=C\\C=C\\[C@H](C)[C@H](O)[C@@H](C)[C@@H](O)[C@@H](C)[C@H](OC(C)=O)[C@@H]1C", "assay value": 3.00}
{"compound": "O=c1c(O)cccc2cc(O)c(O)c(O)c12", "assay value": 45.59}
{"compound": "COc1ccc(-c2c(C)c(C(=O)O)nc(-c3ccc4c(O)c(OC)c5c(c4n3)=NC(C)(C)N=5)c2N)c(O)c1OC", "assay value": 6.75}
{"compound": "CO[C@@H]1/C=C/O[C@@]2(C)Oc3c(C)c(O)c4c(c3C2=O)C(=N[C@@H]2CC[C@@H](O)O[C@H]2C)C=C(NC(=O)/C(C)=C\\C(=O)[C@@H]2C[C@@H]2[C@H](O)[C@@H](C)[C@@H](O)[C@@H](C)[C@H](OC(C)=O)[C@@H]1C)C4=O", "assay value": 3.47}
{"compound": "CO[C@@]12[C@H](COC(N)=O)C3=C(C(=O)C(C)=C(N)C3=O)N1C[C@H]1[C@@H]2N1C (stereo partly shown)", "assay value": 3.24}
{"compound": "COc1cc(C)c2c(c1C=O)Oc1c(c(C)c(O)c3c1C(O)OC3=O)OC2=O (stereo not shown)", "assay value": 0.97}

====

# study system: UniProtKB A0A0C2DEB6
# protocol: biochemical
# Type: biochemical
# condition: read-out: Mean IC50 ± SEM, Enzyme AcPMT1
# Protocol: The chemical compounds were obtained from the National Cancer Institute/Developmental Therapeutics Program Open Chemical Repository. […] Detection buffer (100 μL) containing fluorescence substrate was added into each reaction mixture. […] The plates were covered in aluminum foil and incubated at room temperature with agitation for 30 min, followed by reading the fluorescence at 380EX/520EM. […]
pIC50: −log10 of the molar value.
Entries and their pIC50 values follow.
observed property: pIC50

{"compound": "CO[C@@H]1/C=C\\O[C@]2(C)Oc3c(C)c(O)c4c(O)c(c(CN(C)C)c(O)c4c3C2=O)NC(=O)/C(C)=C\\C=C[C@@H](C)[C@@H](O)[C@H](C)[C@@H](O)[C@H](C)[C@H](OC(C)=O)[C@@H]1C", "observed property": "pIC50", "assay value": 4.56}
{"compound": "CO[C@@H]1/C=C/O[C@@]2(C)Oc3c(C)c(O)c4c(c3C2=O)C(=N[C@@H]2CC[C@@H](O)O[C@H]2C)C=C(NC(=O)/C(C)=C\\C(=O)[C@@H]2C[C@@H]2[C@H](O)[C@@H](C)[C@@H](O)[C@@H](C)[C@H](OC(C)=O)[C@@H]1C)C4=O", "observed property": "pIC50", "assay value": 4.83}
{"compound": "COc1cc(C)c2c(c1C=O)Oc1c(c(C)c(O)c3c1C(O)OC3=O)OC2=O (stereo not drawn)", "observed property": "pIC50", "assay value": 4.18}
{"compound": "CO[C@H]1/C=C/O[C@@]2(C)Oc3c(C)c(O)c4c(O)c(cc(O)c4c3C2=O)NC(=O)/C(C)=C\\C=C\\[C@H](C)[C@H](O)[C@@H](C)[C@@H](O)[C@@H](C)[C@H](OC(C)=O)[C@@H]1C", "observed property": "pIC50", "assay value": 4.50}
{"compound": "COc1ccc(-c2c(C)c(C(=O)O)nc(-c3ccc4c(O)c(OC)c5c(c4n3)=NC(C)(C)N=5)c2N)c(O)c1OC", "observed property": "pIC50", "assay value": 4.87}
{"compound": "O=c1c(O)cccc2cc(O)c(O)c(O)c12", "observed property": "pIC50", "assay value": 4.94}

====

# study system: TcPMT (Toxocara canis)
# protocol: biochemical
# Assay type: biochemical
# Experimental: The chemical compounds were obtained from the National Cancer Institute/Developmental Therapeutics Program Open Chemical Repository. […] Detection buffer (100 μL) containing fluorescence substrate was added into each reaction mixture. […] The plates were covered in aluminum foil and incubated at room temperature with agitation for 30 min, followed by reading the fluorescence at 380EX/520EM. […]
observed property: IC50 (µM)

{"compound": "CO[C@@]12[C@H](COC(N)=O)C3=C(C(=O)C(C)=C(N)C3=O)N1C[C@H]1[C@@H]2N1C (stereo partly shown)", "observed property": "IC50", "measure unit": "µM", "assay value": 84.5}

====

# study system: AcPMT1 (Ancylostoma duodenale);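 on Selectivity index (SI) AcPMT1: cytotoxicity IC50 measured in HCT-8 cells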
# Sequence (A0A0C2DEB6 entry or part of it): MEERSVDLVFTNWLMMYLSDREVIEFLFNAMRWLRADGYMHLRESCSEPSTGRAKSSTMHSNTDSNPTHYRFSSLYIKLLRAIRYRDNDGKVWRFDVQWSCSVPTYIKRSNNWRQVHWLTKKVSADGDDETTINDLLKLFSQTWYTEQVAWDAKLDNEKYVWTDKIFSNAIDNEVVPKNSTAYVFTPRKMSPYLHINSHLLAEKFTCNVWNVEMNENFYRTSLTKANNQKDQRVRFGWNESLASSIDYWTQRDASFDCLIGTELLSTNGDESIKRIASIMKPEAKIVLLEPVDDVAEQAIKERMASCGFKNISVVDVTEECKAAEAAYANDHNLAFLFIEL
# protocol: biochemical
# Assay type: biochemical
# condition: IC50^Cytotoxicity/IC50^Enzyme
Entries and their Selectivity index (SI) AcPMT1 values follow.

{"molecule": "COc1cc(C)c2c(c1C=O)Oc1c(c(C)c(O)c3c1C(O)OC3=O)OC2=O (centres unmarked) [NSC87511]", "Selectivity index (SI) AcPMT1": 2.61}
{"molecule": "COc1ccc(-c2c(C)c(C(=O)O)nc(-c3ccc4c(O)c(OC)c5c(c4n3)=NC(C)(C)N=5)c2N)c(O)c1OC [NSC62709]", "Selectivity index (SI) AcPMT1": 22.31}
{"molecule": "O=c1c(O)cccc2cc(O)c(O)c(O)c12 [NSC35676, purpurogallin]", "Selectivity index (SI) AcPMT1": 49.02}
{"molecule": "CO[C@H]1/C=C/O[C@@]2(C)Oc3c(C)c(O)c4c(O)c(cc(O)c4c3C2=O)NC(=O)/C(C)=C\\C=C\\[C@H](C)[C@H](O)[C@@H](C)[C@@H](O)[C@@H](C)[C@H](OC(C)=O)[C@@H]1C [NSC133100]", "Selectivity index (SI) AcPMT1": 3.23}
{"molecule": "CO[C@@]12[C@H](COC(N)=O)C3=C(C(=O)C(C)=C(N)C3=O)N1C[C@H]1[C@@H]2N1C (some centres unmarked) [NSC56410]", "Selectivity index (SI) AcPMT1": 2.75}
